# RP-LC retention time per record follows
# assay: gradient 5% acetonitrile 3 min, to 50% in 2 min, to 85% in 15 min, held 3 min, 100 µL/min
# measurementConditions: column: Zorbax Extend-C18 2.1 x 50 mm; eluents: water / acetonitrile, 0.1% formic acid
Please state the figure in s; there is no need to write the unit.

Some entries whose results are on file:
- compound: "CCn1cc(CC(=O)NCc2cccc(F)c2)c2cccnc21"
  RP-LC retention time [s]: 716
- compound: "COc1ccccc1NC(=O)Cn1c2ccccc2n2c(=O)cc(-c3ccc(F)cc3)nc12"
  RP-LC retention time [s]: 1010
- compound: "CC(C)Cn1nc2n(c1=O)CCN(S(=O)(=O)Cc1ccccc1)CC2"
  RP-LC retention time [s]: 777
- compound: "O=C(c1ccco1)N1CCN(c2ccc(-c3noc(C4CCC4)n3)cc2)CC1"
  RP-LC retention time [s]: 990

Ask: Tell me the measured RP-LC retention time of Cc1noc(-c2ccnc(-n3cnc(C(=O)N4CCOCC4)c3)c2)n1 , please.
Result: 638

Ask: Request the reported RP-LC retention time associated with COCCNC(=O)C1CCCN(c2cc(=O)n(C)c(=O)n2C)C1 (stereo not given)
Result: 567

Ask: Value lookup for RP-LC retention time; key = COC(=O)c1ccc(Cl)cc1NC(=O)N(C)CCc1c(C)nn(C)c1C
Result: 873

----------
RP-LC retention time reference
# assay: gradient 5% acetonitrile 3 min, to 50% in 2 min, to 85% in 15 min, held 3 min, 100 µL/min
# measurementConditions: column: Zorbax Extend-C18 2.1 x 50 mm; eluents: water / acetonitrile, 0.1% formic acid
Your answer is read as s, so omit the unit and give the number.

Example cases with answers are listed next.
- compound: "COc1ccc(-c2ccnn2-c2ccc(SCc3ccccc3F)nn2)cc1"
  RP-LC retention time (s): 1310
- compound: "CCOc1ccc(-n2ccn3cc(-c4ccc(C)cc4C)nc3c2=O)cc1"
  RP-LC retention time (s): 942
- compound: "O=C(CCc1nc(CSc2nc3ccccc3o2)no1)Nc1nc(-c2ccccc2)cs1"
  RP-LC retention time (s): 1030
- compound: "CCc1ccc(C(C)NC(=O)C2CCN(c3cncnc3N3CCOCC3)CC2)cc1 (centres undefined)"
  RP-LC retention time (s): 697
- compound: "C/C(=C\\C(=O)Nc1ccccc1C(=O)O)c1ccc2ccccc2c1"
  RP-LC retention time (s): 1150
- compound: "COc1cc(C(=O)NCC(c2cccs2)N2CCOCC2)cc(OC)c1OC (centres undefined)"
  RP-LC retention time (s): 607

Ask: Which RP-LC retention time value belongs to COc1cccc(-c2ccc(=O)n(Cc3nc(-c4ccccc4)no3)n2)c1 ?
Result: 968

Ask: What measured RP-LC retention time goes with Cc1ccc(S(=O)(=O)N2CCC(n3cnnc3C(C)C)CC2)cc1F ?
Result: 756

Ask: If you can, please state the reported RP-LC retention time value of CCc1nnc(-c2cccnc2N2CCN(C(=O)Nc3cc(F)cc(F)c3)CC2)o1 .
Result: 850

----------
# assay: gradient 5% acetonitrile 3 min, to 50% in 2 min, to 85% in 15 min, held 3 min, 100 µL/min
# measurementConditions: column: Zorbax Extend-C18 2.1 x 50 mm; eluents: water / acetonitrile, 0.1% formic acid
Kind request: treat 700 s as inclusive, so RP-LC retention time at 700 s or higher is t, anything lower is f.

Use these answered entries as a reference point.
- compound: "CN1CCN(C2CCN(C(=O)Nc3cc(Oc4ccc(NC(=O)C5(C(=O)Nc6ccc(F)cc6)CC5)c(F)c4)ccn3)CC2)CC1"
  assignedClass: "f"
- compound: "Cc1nnc(NC(=O)CN2CCCCC2c2nc(C(C)C)no2)s1 (stereo not given)"
  assignedClass: "t"
- compound: "Cc1ccc(CN(C)Cc2cc(=O)n3ccccc3n2)cc1"
  assignedClass: "f"

Now take the following compound into account.
Ask: Can CCCOc1ccc(CNC(=O)c2nc(N3CCSCC3)c3cn(C)nc3n2)cc1 be said to have RP-LC retention time at or above 700 s?
Result: t

----------
# assay: gradient 5% acetonitrile 3 min, to 50% in 2 min, to 85% in 15 min, held 3 min, 100 µL/min
# measurementConditions: column: Zorbax Extend-C18 2.1 x 50 mm; eluents: water / acetonitrile, 0.1% formic acid
Binary label based on RP-LC retention time with cut-off 1000 s: below gives 1.0, not below gives 0.0.

Sample answers from the record:
- smilesStructure: "COc1ccc(-n2c(=O)n(C)c(=O)c3cc(C(=O)NCc4ccncc4)cnc32)cc1"
  assignedClass: 1.0
- smilesStructure: "Cc1nc2cc3c(cc2n1CC(=O)NCCOc1ccc(Cl)cc1)OCCO3"
  assignedClass: 1.0
- smilesStructure: "Cc1ccc(-c2noc(Cc3nc(-c4ccc(Cl)cc4)cs3)n2)cc1"
  assignedClass: 0.0

Ask: Is RP-LC retention time of CN(CC#N)C(=O)Cn1c(=O)c2cccn2c2ccccc21 strictly below 1000 s?
Result: 1.0

----------
# assay: gradient 5% acetonitrile 3 min, to 50% in 2 min, to 85% in 15 min, held 3 min, 100 µL/min
# measurementConditions: column: Zorbax Extend-C18 2.1 x 50 mm; eluents: water / acetonitrile, 0.1% formic acid
Rule: RP-LC retention time under 700 s gives False, otherwise True.

- smilesStructure: "CC[C@@H](c1cccc(O)c1)[C@@H](C)CN(C)C"
  assignedClass: "False"
- smilesStructure: "Cc1ccc(NC(=O)Cn2cccc2-c2nnc(C3CC3)o2)c(Cl)c1"
  assignedClass: "True"

Ask: Evaluate CCC(CC)C(=O)N1CCCN(C2=NS(=O)(=O)C(c3ccc(F)cc3)=C2C)CC1 : RP-LC retention time at minimum 700 s?
Result: True

----------
# assay: gradient 5% acetonitrile 3 min, to 50% in 2 min, to 85% in 15 min, held 3 min, 100 µL/min
# measurementConditions: column: Zorbax Extend-C18 2.1 x 50 mm; eluents: water / acetonitrile, 0.1% formic acid
observationType: RP-LC retention time
Entry format: amount then unit.

Illustrative cases are given below, each with its answer.
- compound: "Cc1noc(CNC(=O)C2CCN(C(=O)c3ccc4ncsc4c3)CC2)n1"
  experimentalResult: "574 s"
- compound: "Cc1ccc(Cl)cc1NC(=O)Cn1c(=O)cnc2cc(C(=O)NC3CC3)ccc21"
  experimentalResult: "674 s"
- compound: "COc1ccc(C(C)NC(=O)Cn2c(=O)n(-c3ccccc3)c3ncccc32)cc1OC (centres undefined)"
  experimentalResult: "741 s"
- compound: "O=C(NC1(c2nc(-c3ccccc3)no2)CCCCC1)c1ccc2c(c1)OCO2"
  experimentalResult: "1120 s"
- compound: "COc1ccc(NC(=O)c2cnc3c(c2)c(=O)n(C)c(=O)n3-c2ccc(C)cc2)cc1"
  experimentalResult: "900 s"
- compound: "COc1cccc(-c2ccc3nc(N4CCC(C(=O)NCCN(C)C)CC4)sc3n2)c1"
  experimentalResult: "669 s"
- compound: "Cc1ccsc1C(=O)NC1CCN(c2cc(-c3ccccc3)[nH]n2)C1 (centres undefined)"
  experimentalResult: "704 s"
- compound: "O=C(NCc1ccccc1F)c1c(O)c2cccnc2n(Cc2ccccc2)c1=O"
  experimentalResult: "1360 s"

Ask: So what's the measured RP-LC retention time for this one? Cc1cc(NC(=O)CCS(=O)(=O)c2ccc(F)cc2)n(-c2nc3ccccc3s2)n1
Result: 1030 s

Ask: Requested read-out: RP-LC retention time. Entry: CCOc1ccc(CC(=O)N2CCc3cc(-c4csc(C)n4)ccc32)cc1
Result: 1060 s

Ask: Fill in the blank: the reported RP-LC retention time of Cc1ccc(S(=O)(=O)n2nc(-c3ccc(C)c(C)c3)nc2N)cc1 is ____.
Result: 1000 s

Ask: Param item = COC(=O)c1cc2c(=O)n(-c3nc(-c4ccccc4)cs3)ccc2nc1C ; retrieve measured RP-LC retention time.
Result: 1250 s

----------
We begin with a simple list: items and their reported RP-LC retention time.
# assay: gradient 5% acetonitrile 3 min, to 50% in 2 min, to 85% in 15 min, held 3 min, 100 µL/min
# measurementConditions: column: Zorbax Extend-C18 2.1 x 50 mm; eluents: water / acetonitrile, 0.1% formic acid
Please give a number only; it is taken to be in s.

Would you please look over these solved cases?
- compound: "Cc1ccc(C)c(NC(=O)C2CCCN(S(=O)(=O)c3c[nH]c(C(=O)N4CCCC4)c3)C2)c1 (centres undefined)"
  experimentalResult: 821
- compound: "O=C(COc1ccc(Cl)cc1)N1CCC(c2nnc(-c3ccc(F)cc3)o2)CC1"
  experimentalResult: 831
- compound: "Cc1c(-c2noc(-c3ccc4c(c3)OCO4)n2)nnn1Cc1ccc(F)cc1"
  experimentalResult: 999

Ask: Returns the measured RP-LC retention time for the input compound. Input: COc1cccc(CN2N=C(C(=O)N3CCCC3)S(=O)(=O)c3ccccc32)c1
Result: 843

Ask: Tell me the measured RP-LC retention time of CCNC(=O)c1cc2c(n(-c3ccc(C(C)C)cc3)c1=O)CCCC2=O , please.
Result: 905
